assay: Ocular pharmacokinetic study in rabbit eyes, single topical ocular dose; format: in vivo; settings: aqueous humor, single 300 μg topical ocular dose, 6 hr post-dosing, read-out: Aqueous Humor Concentration
METRIC NAME: concentration at 6 hr (nM)
Provide only the numeric value, understood in nM.

Incoming: Which concentration at 6 hr is listed for `CNC(=O)c1ccc(/C=C/C(=O)NCC(=O)N(C)c2ccc(Cl)c(COc3cccc4c(OCc5ccccn5)cc(C)nc34)c2Cl)cc1` ?
Outgoing: 16.6

---

Biological target: BK B2-Receptor in h-NPE cells (Homo sapiens)
Construct: B2-receptor proteins in h-TM, h-CM and h-NPE cells; endogenous in cells
Sequence (P30411 1-391): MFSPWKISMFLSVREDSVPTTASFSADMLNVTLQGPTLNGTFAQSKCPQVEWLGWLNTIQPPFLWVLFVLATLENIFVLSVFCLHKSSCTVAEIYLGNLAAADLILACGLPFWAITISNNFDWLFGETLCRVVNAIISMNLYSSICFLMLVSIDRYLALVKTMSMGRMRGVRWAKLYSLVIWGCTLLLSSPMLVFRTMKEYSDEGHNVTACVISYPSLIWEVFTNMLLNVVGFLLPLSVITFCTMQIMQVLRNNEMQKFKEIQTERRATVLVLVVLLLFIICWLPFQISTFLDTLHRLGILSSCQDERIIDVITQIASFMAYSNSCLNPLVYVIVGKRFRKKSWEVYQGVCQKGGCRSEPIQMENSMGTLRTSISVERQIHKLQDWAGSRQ
Experiment: Antagonism of FR-190997-induced [Ca2+]i mobilization in h-NPE cells
Conditions: FR-190997 as the agonist, read-out: Antagonist Potency (Ki)
Reported Ki values are given for each entry in this list.
Provide only the numeric value, understood in nM.

COMPOUND	Ki, nM
Cc1nc2c(OCc3c(Cl)ccc(N(C)C(=O)CNC(=O)/C=C/c4ccc(C(=O)N(C)C)cc4)c3Cl)cccn2c1Br	124
CC(=O)Nc1ccc(/C=C/C(=O)NCC(=O)N(C)c2ccc(Cl)c(COc3cccc4ccc(C)nc34)c2Cl)cn1	439

Now let's try a different one.
Incoming: Which Ki is listed for CNC(=O)c1ccc(/C=C/C(=O)NCC(=O)N(C)c2ccc(Cl)c(COc3cccc4ccc(C)nc34)c2Cl)cc1 [FR-165649, reference compound] ?
Outgoing: 146

---

Reported pEC50 values are given for each entry in this list.
Molecular target: human cloned B2-receptors (Homo sapiens, UniProt P30411)
Sequence (P30411 1-391): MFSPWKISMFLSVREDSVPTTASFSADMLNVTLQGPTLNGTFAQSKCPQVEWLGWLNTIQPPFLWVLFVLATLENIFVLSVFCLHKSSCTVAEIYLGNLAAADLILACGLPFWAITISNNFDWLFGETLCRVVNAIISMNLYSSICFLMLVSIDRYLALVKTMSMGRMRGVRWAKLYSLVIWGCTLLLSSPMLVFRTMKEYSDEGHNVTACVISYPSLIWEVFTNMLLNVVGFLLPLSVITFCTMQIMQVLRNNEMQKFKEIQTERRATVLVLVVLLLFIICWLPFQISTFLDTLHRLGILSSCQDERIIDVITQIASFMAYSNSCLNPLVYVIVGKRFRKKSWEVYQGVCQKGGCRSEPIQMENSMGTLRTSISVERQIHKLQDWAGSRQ
Experiment: HTRF-based assay of endogenous IP1 production in CHO cells
Type: cell-based
Details: CHO cells expressing human cloned B2-receptors, read-out: EC50, production of endogenous IP1 from PI turnover
Value format note: pEC50 is -log10 of concentration (mol/L); just state the number.

CNC(=O)c1ccc(/C=C/C(=O)NCC(=O)N(C)c2ccc(Cl)c(COc3cccc4c(OCc5ccccn5)cc(C)nc34)c2Cl)cc1 7.68

Incoming: Which pEC50 is listed for `Cc1cc(OCc2ccccn2)c2cccc(OCc3c(Cl)ccc(N(C)C(=O)CNC(=O)/C=C/c4ccc(/C=C/c5ccncc5)nc4)c3Cl)c2n1` ?
Outgoing: 7.42

These measurements were taken from patent US8173668B1.
